Data provenance is the supplement of paper PMC9732359.

# assay protocol: protein stability index of a GFP-peptide fusion (yeast GPS) (PSI 1-4); higher = more stable; sorted into four equal gates, so the index is relative within each strain
# conditions used: ubr1∆
What protein stability index was measured for each of the following?

Please look up its protein stability index: ILSSLYLLSIWVKKFKW [CYT1]
1.3

Then WGYQMVWAPTQKCFKLT [POP1] ?
2.66

Then this sequence: KIQVVDRHIGCVYSGLI [PRE10]
1.36

What do we get for AISTDKINPFGFEQVKI [RRI2] ?
2.86

What about this sequence? FFTNPNKKRPSSKKVFS [YOR098C/NUP1]
3

What about DEKVTILVDSLTGNQLP [SWI1] ?
2.95

Lookup SKAPAEKKPAAKKTSTS [HTB1]
3.33

Another: YFLVLSPYGNLQNDLIH [RPN5]
2.67

And what about the sequence IVNVNFMKSVIRSREAF [DIS3] ?
2.31

// next record MDAYSTRPLTLSHGSLE [FAS1]
3.3

Here is the next sequence: AINIMNRSNDALIKFME [FAS2]
3.38

Next sequence: TRPISSQVLDLAKKIAP [SMC2]
1.95

Try this sequence next: PFIKSESKPFSSDALSK [SIR4]
3.13

====

# assay protocol: protein stability index of a GFP-peptide fusion (yeast GPS) (PSI 1-4); higher = more stable; sorted into four equal gates, so the index is relative within each strain
# conditions used: pdr5∆
Returns true (1) if the recorded protein stability index is greater than or equal to 3, and false (0) otherwise.

State whether the measured protein stability index reaches 3, counting equality as reaching it, for HDFIKGLIMLNLQPASV [NUT1]
false (0)

Can you check QKNMNDLLRSQLTSLEK [YIL149C/MLP2] next?
false (0)

Try this sequence next: FVKKTSEEIDSLNEDVE [SMC2]
true (1)

Record: PTGGKAKLSEGTSFRRK [RPS27A]
true (1)

For EDILYYSTCPSETDLND [SRB8] then?
false (0)

Query YPSKTLKTDGVRAVSIT [FAS2] next
false (0)

For ILCGIQEYLNPVIDTQI [YDL116W/NUP84] then?
false (0)

Same for KPMAFSNTTTHVPEKKS [MTR3]
false (0)

Consider next the sequence LQNNSDSESDSDSETNH [SKP1] in the same way.
true (1)

// same read-out, input: LICSIGLHSSEYKLRSL [ECM29]
false (0)

Could you do the same for TFSGALGKQSSSLLSRL [FAS2] , please?
true (1)

Record: ILSTTLDPTDDEGHVLK [SIN4]
false (0)

Next up: SDEEEVTEMSNNANVLG [BRR2]
true (1)

Moving on to VKVKVSYQKLLKNYVLN [PRP8]
false (0)

Can you check IVTGNLVLDLLTWLSSF [IRR1] next?
false (0)

Another sequence to check: KTFNKIQSQVFESLYNS [BRR2]
false (0)

Next record, please: EPPGSNTSFSFTKPPAN [YOR098C/NUP1]
true (1)

Same question, QQQQQQQQQQQNNSTGS [SSN2] this time
false (0)

Also KKFNMGKEFEARNLIED [RPC53] ?
false (0)

Same question for IEQCKHPLHELIIQYPP [ISW2] please.
false (0)

Check GVDAMSVDDLKKLNKNK [RPL1A] too.
true (1)

Note, next up: SCIAVMAGLMHFKKPDI [RRP45]
false (0)

Field entry: LVASAKGLQTVVVEEDA [RPL31A]
false (0)
